Entries and their viability at 18 h, 5 µM
# ASSAY NAME: Cytotoxicity against C57BL/6 mouse primary BMDC assessed as cell viability at 5 uM after 18 hrs by MTT assay relative to control
# Format: cell-based
# EXPERIMENTAL CONTEXT: primary BMDC (bone marrow-derived dendritic cells), read-out: Activity
Dear colleague, please return just the value in %, with no unit written.

Please review the entries below; each comes with its answer.
- SMILES REPRESENTATION: "O=C(CSc1nc2cc[nH]c2c(=O)n1-c1ccccc1)NC1CCCCC1"
  MEASURED RESULT: 99
- SMILES REPRESENTATION: "Cn1c2ccc(-c3cccc4ccccc34)cc2c2nc(SCC(=O)NC3CCCCC3)n(-c3ccccc3)c(=O)c21"
  MEASURED RESULT: 102
- SMILES REPRESENTATION: "Cn1c2ccccc2c2nc(S(=O)(=O)CC(=O)NC3CCCCC3)n(-c3ccccc3)c(=O)c21"
  MEASURED RESULT: 50
- SMILES REPRESENTATION: "Cn1c2cc(Br)ccc2c2nc(SCC(=O)NC3CCCCC3)n(-c3ccccc3)c(=O)c21"
  MEASURED RESULT: 93
- SMILES REPRESENTATION: "Cn1ccc2nc(SCC(=O)NC3CCCCC3)n(-c3ccccc3)c(=O)c21"
  MEASURED RESULT: 117

In: viability at 18 h, 5 µM for "Cn1c2c(c3nc(SCC(=O)NC4CCCCC4)n(-c4ccccc4)c(=O)c31)CCCC2" ?
Out: 106

In: viability at 18 h, 5 µM for "Cc1[nH]c2c(=O)n(-c3ccccc3)c(SCC(=O)NC3CCCCC3)nc2c1C" ?
Out: 70

In: viability at 18 h, 5 µM for "Cn1c2ccc(NC(=O)CCC(=O)O)cc2c2nc(SCC(=O)NC3CCCCC3)n(-c3ccccc3)c(=O)c21" ?
Out: 75

In: viability at 18 h, 5 µM for "Cn1c2ccccc2c2nc(OCC(=O)NC3CCCCC3)n(-c3ccccc3)c(=O)c21" ?
Out: 58

----------
Entries and their EC50
# TARGET UNDER TEST: Toll-like receptor 4 (Mus musculus, UniProt Q9QUK6)
# Sequence (Q9QUK6 whole entry): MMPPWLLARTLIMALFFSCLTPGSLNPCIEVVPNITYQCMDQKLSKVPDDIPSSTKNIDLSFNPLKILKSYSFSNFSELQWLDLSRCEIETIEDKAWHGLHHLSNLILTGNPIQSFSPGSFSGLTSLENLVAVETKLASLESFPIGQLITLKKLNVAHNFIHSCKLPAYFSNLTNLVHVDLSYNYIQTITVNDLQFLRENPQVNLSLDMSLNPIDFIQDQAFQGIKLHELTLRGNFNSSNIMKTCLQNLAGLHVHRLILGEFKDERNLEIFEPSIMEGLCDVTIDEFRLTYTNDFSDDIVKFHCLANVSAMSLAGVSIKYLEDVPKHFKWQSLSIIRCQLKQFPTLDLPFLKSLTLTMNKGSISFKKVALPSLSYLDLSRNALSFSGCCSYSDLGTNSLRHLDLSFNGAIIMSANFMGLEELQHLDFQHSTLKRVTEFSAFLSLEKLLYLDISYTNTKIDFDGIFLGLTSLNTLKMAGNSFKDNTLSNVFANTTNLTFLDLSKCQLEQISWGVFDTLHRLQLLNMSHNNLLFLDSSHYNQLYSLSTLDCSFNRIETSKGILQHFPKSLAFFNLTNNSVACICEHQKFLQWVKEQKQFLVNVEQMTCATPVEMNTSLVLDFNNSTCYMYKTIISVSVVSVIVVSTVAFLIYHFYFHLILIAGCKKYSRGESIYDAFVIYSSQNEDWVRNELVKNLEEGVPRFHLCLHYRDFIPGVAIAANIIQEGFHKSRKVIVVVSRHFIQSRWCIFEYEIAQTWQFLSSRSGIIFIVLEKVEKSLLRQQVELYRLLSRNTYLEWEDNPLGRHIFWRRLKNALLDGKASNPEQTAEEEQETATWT
# ASSAY NAME: Agonist activity at mouse TLR4 expressed in HEK293 blue cells assessed as induction of NF-kappaB activation-mediated SEAP production after 20 to 24 hrs by colorimetric assay

Please review the entries below; each comes with its answer.
- SMILES REPRESENTATION: "Cn1ccc2nc(SCC(=O)NC3CCCCC3)n(-c3ccccc3)c(=O)c21"
  TARGET UNDER TEST: "Toll-like receptor 4 (Mus musculus, UniProt Q9QUK6)"
  EC50: "> 10 µM"
- SMILES REPRESENTATION: "Cn1c2ccc(-c3ccccc3)cc2c2nc(SCC(=O)NC3CCCCC3)n(-c3ccccc3)c(=O)c21"
  TARGET UNDER TEST: "Toll-like receptor 4 (Mus musculus, UniProt Q9QUK6)"
  EC50: "0.82 µM"

In: EC50 for "Cn1c2ccc(Br)cc2c2nc(SCC(=O)NC3CCCCC3)n(-c3ccccc3)c(=O)c21" ?
Out: 2.45 µM

----------
# TARGET UNDER TEST: Toll-like receptor 4 (Mus musculus)
# ASSAY NAME: Agonist activity at mouse TLR4 expressed in HEK293 blue cells assessed as induction of NF-kappaB activation-mediated SEAP production by measuring AUC after 20 to 24 hrs by colorimetric assay relative to N-cyclohexyl-2-(5-methyl-4-oxo-3-phenyl-4,5-dihydro-3H-pyrimido[5,4-b]indol-2-ylthio)acetamide
# Type: cell-based
Entries and their Activity
A complete answer gives the number followed by the unit.

- SMILES REPRESENTATION: "Cn1c2ccccc2c2nc(S(=O)(=O)CC(=O)NC3CCCCC3)n(-c3ccccc3)c(=O)c21"
  TARGET UNDER TEST: "Toll-like receptor 4 (Mus musculus)"
  Activity: "2%"

In: Activity for "Cc1[nH]c2c(=O)n(-c3ccccc3)c(SCC(=O)NC3CCCCC3)nc2c1C" ?
Out: 28%

In: Activity for "Cn1c2ccccc2c2nc(OCC(=O)NC3CCCCC3)n(-c3ccccc3)c(=O)c21" ?
Out: 1%

In: Activity for "Cn1c2ccc(-c3ccccc3)cc2c2nc(SCC(=O)NC3CCCCC3)n(-c3ccccc3)c(=O)c21" ?
Out: 223%

These data points were gathered from ChEMBL document CHEMBL4028879.
